test: Cytotoxicity against human C8166 cells by XTT assay; format: cell-based; settings: read-out: TC50 (the source's name)
parameter measured: CC50

- smiles data: "COc1c(O)cc2c(c1O)[C@@H]1O[C@H](CO)[C@@H](O)[C@H](O)[C@H]1OC2=O"
  CC50: "> 1000 µg/mL"
- smiles data: "COc1cc2c(c(OC)c1OC)[C@H]1O[C@@H](CO)[C@H](O)[C@@H](O)[C@@H]1OC2=O"
  CC50: "250 µg/mL"

Now consider a different compound.
Entry O=C1O[C@H]2[C@H](O)[C@@H](O)[C@H](CO)O[C@@H]2c2c1cc(O)c(O)c2O : reported CC50 = ?
> 500 µg/mL
